Reported Activity by item:
- assayedTarget: Muscarinic acetylcholine receptor (Rattus norvegicus) (UniProt P08482+P08483+P08485+P08911+P10980)
- assayText: Displacement of [3H]NMS from muscarinic receptor in Sprague-Dawley rat brain homogenates assessed as remaining protein bound radioligand levels at 300 pM to 1 uM after 60 mins by liquid scintillation counting method relative to control
Entry rule: numbers only, all in %.

[[record]]
chemsmiles = "CCCCCCCCCCCCCCCCCC(=O)OC[C@H](COP(=O)(O)OCCOCCOCCOCCOCCOCCOCCOCCOCCOCCNC(=O)CCCCCC(=O)NCCc1ccc(O)c([C@H](CCN(C(C)C)C(C)C)c2ccccc2)c1)OC(=O)CCCCCCCCCCCCCCCCC"
unitinfo = "%"
measuredvalue = 6

[[record]]
chemsmiles = "CCCCCCCCCCCCCCCCCC(=O)OC[C@H](COP(=O)(O)OCCOCCOCCOCCNC(=O)CCCCCC(=O)NCCc1ccc(O)c([C@H](CCN(C(C)C)C(C)C)c2ccccc2)c1)OC(=O)CCCCCCCCCCCCCCCCC"
unitinfo = "%"
measuredvalue = 32.3


Let's switch to this compound now.
Inquiry: Can you look up the measured Activity of CCCCCCCCCCCCCCCCCC(=O)OC[C@H](COP(=O)(O)OCCOCCNC(=O)CCCCCC(=O)NCCc1ccc(O)c([C@H](CCN(C(C)C)C(C)C)c2ccccc2)c1)OC(=O)CCCCCCCCCCCCCCCCC for me?
Reply text: 66.4
